molecular target: Human recombinant MMP-13 (Homo sapiens, UniProt P45452); construct: made in house; host or cells: baculovirus / insect cells; assay: In vitro MMP inhibition analysis (fluorogenic peptide substrate cleavage), Ki; format: biochemical; conditions: Table 2
attribute_measured: Ki (nM)

1) O=C(N1CCCCC1)N1CCC(C(=O)NO)(S(=O)(=O)c2ccc(-c3ccc(CCC(F)(F)C(F)(F)F)cc3)cc2)CC1 | 0.71
2) COCCN1CCC(C(=O)NO)(S(=O)(=O)c2ccc(-c3ccc(OCCN4CCCC4)cc3)cc2)CC1 | 2.25
3) O=C(Cc1ccc(-c2ccc(S(=O)(=O)C3(C(=O)NO)CCOCC3)cc2)nc1)N1CCCCC1 | 0.679
4) O=C(NO)C1(S(=O)(=O)c2ccc(-c3ccc(OCC(F)(F)C(F)(F)F)c(C(F)(F)F)c3)cc2)CCOCC1 | 19.7
5) COCCN1CCC(C(=O)NO)(S(=O)(=O)c2ccc(-c3ccc(-c4ccccc4)cc3)cc2)CC1 | 0.05
6) O=C(NO)C1(S(=O)(=O)c2ccc(-c3ccc(-c4ccc(OC(F)(F)F)cc4)cn3)cc2)CCN(C2CC2)CC1 | 0.26
7) COc1ccc(C(=O)c2cnc(-c3ccc(S(=O)(=O)C4(C(=O)NO)CCOCC4)cc3)cn2)cc1 | 0.973
8) CCCCc1ccc(-c2ccc(S(=O)(=O)C3(C(=O)NO)CCOCC3)cc2)cc1 | 0.217
9) O=C(NCC1CC1)c1cnc(-c2ccc(S(=O)(=O)C3(C(=O)NO)CCOCC3)cc2)cn1 | 0.24
10) O=C(NO)C1(S(=O)(=O)c2ccc(-c3cnc(OCCC4CCCC4)cn3)cc2)CCOCC1 | 0.15
11) CC(C)CCc1ccc(-c2ccc(S(=O)(=O)C3(C(=O)NO)CCOCC3)cc2)nc1 | 0.052
12) CCN1CCC(C(=O)NO)(S(=O)(=O)c2ccc(-c3ccc(OCCOC)cc3)cc2)CC1 | 0.066
13) O=C(NO)C1(S(=O)(=O)c2ccc(-c3ccc(F)c(C(F)(F)F)c3)cc2)CCOCC1 | 1.85
14) COCCN1CCC(C(=O)NO)(S(=O)(=O)c2ccc(-c3cnc(OCC(F)(F)C(F)(F)F)cn3)cc2)CC1 | 0.26
15) O=C(NO)C1(S(=O)(=O)c2ccc(-c3cnc(-c4cccs4)cn3)cc2)CCOCC1 | 0.7
16) COCCOc1ccc(-c2ccc(S(=O)(=O)C3(C(=O)NO)CCN(CCOC)CC3)cc2)cc1 | 0.025
17) COCC#Cc1cnc(-c2ccc(S(=O)(=O)C3(C(=O)NO)CCOCC3)cc2)cn1 | 0.09
18) CCCCOc1ccc(-c2ccc(S(=O)(=O)C3(C(=O)NO)CCN(C4CC4)CC3)cc2)cc1 | 0.082
19) COCCOc1ccc(-c2ccc(S(=O)(=O)C3(C(=O)NO)CCN(C4CC4)CC3)cc2)cc1F | 0.058
20) O=C(NO)C1(S(=O)(=O)c2ccc(-c3ncccn3)cc2)CCOCC1 | 4.86
21) CCN1CCC(C(=O)NO)(S(=O)(=O)c2ccc(-c3cnc(CCC(F)(F)F)cn3)cc2)CC1 | 1.41
22) O=C(NO)C1(S(=O)(=O)c2ccc(-c3ccc(OCCCC(F)(F)F)cn3)cc2)CCOCC1 | 0.007
23) C#CCN(C)C(=O)c1ccc2cc(-c3ccc(S(=O)(=O)C4(C(=O)NO)CCOCC4)cc3)ccc2c1 | 0.572
